Test system: Bombyx mori
PROCEDURE_SUMMARY: Antijuvenile hormone activity in third-instar larvae of Bombyx mori assessed as induction of precocious metamorphosis at 1 ug/larvae topically applied to the dorsal abdomen
Assay type: functional
Can you tell me Activity for the items I'm about to list?
Numbers only, in %.

Here is how some molecules turned out for Activity.
| MOLECULE | TARGET_SYSTEM | UNIT_NAME | Activity |
| --- | --- | --- | --- |
| CCCCn1c(COc2ccc(C(=O)OCC)cc2)cc2ccccc21 | Bombyx mori | % | 65 |
| CCCCN1c2ccccc2C[C@H]1COc1ccc(C(=O)OCC)cc1 | Bombyx mori | % | 5 |
| CCOC(=O)c1ccc(OCc2cc3ccccc3n2CC)cc1 | Bombyx mori | % | 5 |

Below are 4 molecules. Give each one its Activity.
1. CCOC(=O)c1ccc(OCc2cc3ccccc3n2Cc2ccccc2)cc1
2. CCCn1c(COc2ccc(C(=O)OCC)cc2)cc2ccccc21
3. CCOC(=O)c1ccc(OC[C@@H]2Cc3ccccc3N2Cc2ccccc2)cc1
4. CCCCC(COc1ccc(C(=O)OCC)cc1)Cc1ccccc1 (configuration not stated)

73
67
5
90
